# Tested on: WNV NS2B/NS3pro (West Nile virus)
# Sequence (Q9Q6P4 1506-1683): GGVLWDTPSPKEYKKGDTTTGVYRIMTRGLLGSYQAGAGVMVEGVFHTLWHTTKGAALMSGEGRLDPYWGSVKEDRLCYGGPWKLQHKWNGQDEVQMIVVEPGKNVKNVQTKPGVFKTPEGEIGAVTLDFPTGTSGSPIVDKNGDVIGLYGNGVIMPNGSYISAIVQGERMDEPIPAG
# Sequence (Q9Q6P4 1428-1467): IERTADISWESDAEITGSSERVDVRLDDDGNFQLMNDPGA
# Type: biochemical
# Experimental parameters: read-out: IC50 (μM) a; tri-peptide substrate Boc-GKR-AMC, inhibitor 0–40 μM
Quantity: IC50 (µM)

• Oc1c(C(Nc2nccs2)c2ccccc2)ccc2cccnc12 (stereo not shown) = 9.85
